system_under_test: LC3B L53A (human, UniProt Q9GZQ8 1-120, L53A)
experiment: ITC; MicroCal iTC200, 25 °C; proteins 0.25 mmol/L and peptides 3 mmol/L, dialyzed against buffer B (20 mmol/L Tris-HCl, 200 mmol/L NaCl, 1 mmol/L EDTA, pH 8.0); single binding site model
condition_label: both partners purified
Non-standard residues stand in square brackets, D forms with d. No end group written: not given here. pS = N[C@@H](COP(=O)(O)O)C(=O)O
property_name: pKd
pKd field: float, defined as -log10 of concentration (mol/L).

Determine from records and report pKd for DYESDDD[pS]YEVLDLTE (also called FUNDC1 pS17; FUNDC1 pS17 peptide; source: synthetic peptide (GL Biochem, Shanghai)) [FUNDC1 LIR peptide 10-25 phosphorylated at Ser17]
6.01
